Attribution: patent US9526785B2

experiment: Tigecycline plasma PK and % F after PO enteric-coated capsule in dogs; format: in vivo, Beagle dogs; conditions: female, beagle, dog, plasma, po, 45 mg, PO 45 mg enteric-coated capsule with 500 mg CA and 100 mg LLC ([…]), SC430; mean; read-out: Tmax (converted)

{"compound": "CN(C)c1cc(NC(=O)CNC(C)(C)C)c(O)c2c1C[C@H]1C[C@H]3[C@H](N(C)C)C(O)=C(C(N)=O)C(=O)[C@@]3(O)C(O)=C1C2=O [Tigecycline]", "quantity unit": "h", "Tmax": 1.67}

----------
assay: Tigecycline plasma PK and % F after intraduodenal (ID) injection in anesthetized rats; format: in vivo, Sprague-Dawley Rats; settings: female, Sprague-Dawley, rat, plasma, other: intraduodenal bolus injection, 4.8 mg/kg, ID, PBS, 4.8 mg/kg (RA851); 240 min

{"mol": "CN(C)c1cc(NC(=O)CNC(C)(C)C)c(O)c2c1C[C@H]1C[C@H]3[C@H](N(C)C)C(O)=C(C(N)=O)C(=O)[C@@]3(O)C(O)=C1C2=O", "concentration at 240 min, ng/mL": 66}

----------
assay: Tigecycline plasma PK and % F after PO enteric-coated capsule in dogs; assay type: in vivo, Beagle dogs; conditions: female, beagle, dog, plasma, po, 45 mg, target dose 45 mg, enterically coated capsule; time scale adjusted to 4 hours; read-out: Observed AUC(0-t)

{"compound": "CN(C)c1cc(NC(=O)CNC(C)(C)C)c(O)c2c1C[C@H]1C[C@H]3[C@H](N(C)C)C(O)=C(C(N)=O)C(=O)[C@@]3(O)C(O)=C1C2=O [Tigecycline]", "AUC(0-t)": "266 ng·h/mL"}

----------
Assay: Tigecycline plasma PK and % F after PO enteric-coated capsule in dogs
Assay type: in vivo, Beagle dogs
Conditions: female, beagle, dog, plasma, po, 45 mg, Tigecycline Plasma Concentration, Time (min) 2.3; PO 45 mg enteric-coated capsule with 500 mg CA and 100 mg LLC, SC430; mean
Description: Adult beagle dogs weighing approximately 9 to 15 kg were used in the study. […] Room temperature was set to be maintained between approximately 20±5° C. Relative humidity was monitored but not controlled. […] The unknown concentration in dog plasma samples was determined by interpolation of the peak area ratios of analyte:internal standard versus the ratio of their nominal concentrations into the regression line obtained from calibration standards spiked in pooled dog plasma. […]
assay metric: concentration at […] (ng/mL)

{"mol": "CN(C)c1cc(NC(=O)CNC(C)(C)C)c(O)c2c1C[C@H]1C[C@H]3[C@H](N(C)C)C(O)=C(C(N)=O)C(=O)[C@@]3(O)C(O)=C1C2=O", "assay metric": "concentration at […]", "measurement": 108}

----------
assay: Tigecycline plasma PK after IV bolus in dogs; format: in vivo, Beagle dogs; settings: female, beagle, dog, plasma; IV bolus 5 mg (0.42 mg/kg), SC431; read-out: Tmax (converted)
assay metric: Tmax (min)

{"compound": "CN(C)c1cc(NC(=O)CNC(C)(C)C)c(O)c2c1C[C@H]1C[C@H]3[C@H](N(C)C)C(O)=C(C(N)=O)C(=O)[C@@]3(O)C(O)=C1C2=O [Tigecycline]", "quantity unit": "min", "measurement": 5}

----------
experiment: Tigecycline plasma PK and % F after intraduodenal (ID) injection in anesthetized rats; type: in vivo, Sprague-Dawley Rats; settings: female, Sprague-Dawley, rat, plasma, 4.6 mg/kg, RA861, ID, 26 mM LLC alone, mean dose 4.6 mg/kg; read-out: Cmax, mean

{"mol": "CN(C)c1cc(NC(=O)CNC(C)(C)C)c(O)c2c1C[C@H]1C[C@H]3[C@H](N(C)C)C(O)=C(C(N)=O)C(=O)[C@@]3(O)C(O)=C1C2=O", "quantity unit": "ng/mL", "Cmax": 64.1}

----------
test: Tigecycline plasma PK and % F after PO enteric-coated capsule in dogs; format: in vivo, Beagle dogs; conditions: female, beagle, dog, plasma, po, 30 mg, Tigecycline Plasma Concentration, Time (min) 0.3; PO 30 mg enteric-coated capsule with 500 mg CA and 100 mg LLC, SC430; mean

{"mol": "CN(C)c1cc(NC(=O)CNC(C)(C)C)c(O)c2c1C[C@H]1C[C@H]3[C@H](N(C)C)C(O)=C(C(N)=O)C(=O)[C@@]3(O)C(O)=C1C2=O", "concentration at 0.3 min, ng/mL": 0}

----------
assay: Tigecycline plasma PK after IV bolus in dogs; assay type: in vivo, Beagle dogs; conditions: female, beagle, dog, plasma, iv, […], IV bolus 5 mg ([…]), SC431; read-out: Cmax, mean

{"mol": "CN(C)c1cc(NC(=O)CNC(C)(C)C)c(O)c2c1C[C@H]1C[C@H]3[C@H](N(C)C)C(O)=C(C(N)=O)C(=O)[C@@]3(O)C(O)=C1C2=O", "quantity unit": "ng/mL", "Cmax": 335}

----------
assay: Tigecycline plasma PK and % F after PO enteric-coated capsule in dogs; assay type: in vivo, Beagle dogs; conditions: female, beagle, dog, plasma, po, 30 mg, Tigecycline Plasma Concentration, Time (min) 24.0; PO 30 mg enteric-coated capsule with 500 mg CA and 100 mg LLC, SC430; mean

{"compound": "CN(C)c1cc(NC(=O)CNC(C)(C)C)c(O)c2c1C[C@H]1C[C@H]3[C@H](N(C)C)C(O)=C(C(N)=O)C(=O)[C@@]3(O)C(O)=C1C2=O [Tigecycline]", "concentration at 24 min / ng/mL": 0}

----------
experiment: Tigecycline plasma PK and % F after intraduodenal (ID) injection in anesthetized rats; format: in vivo, Sprague-Dawley Rats; conditions: female, Sprague-Dawley, rat, plasma, other: intraduodenal injection, […], RA869, ID, 400 mM CA/26 mM LLC, […]; read-out: % F, mean
assay metric: bioavailability

{"mol": "CN(C)c1cc(NC(=O)CNC(C)(C)C)c(O)c2c1C[C@H]1C[C@H]3[C@H](N(C)C)C(O)=C(C(N)=O)C(=O)[C@@]3(O)C(O)=C1C2=O", "assay metric": "bioavailability", "measurement": "~22%"}

----------
experiment: Tigecycline plasma PK and % F after PO enteric-coated capsule in dogs; assay type: in vivo, Beagle dogs; conditions: female, beagle, dog, plasma, po, 45 mg, Tigecycline Plasma Concentration, Time (min) 1.3; PO 45 mg enteric-coated capsule with 500 mg CA and 100 mg LLC, SC430; mean
assay metric: concentration at […]

{"mol": "CN(C)c1cc(NC(=O)CNC(C)(C)C)c(O)c2c1C[C@H]1C[C@H]3[C@H](N(C)C)C(O)=C(C(N)=O)C(=O)[C@@]3(O)C(O)=C1C2=O", "assay metric": "concentration at […]", "measurement": "58.3 ng/mL"}

----------
experiment: Tigecycline plasma PK after IV bolus in dogs; format: in vivo, Beagle dogs; settings: female, beagle, dog, plasma, intravenous, 5 mg, Tigecycline Plasma Concentration, 20 min; 5 mg IV in PBS ([…]), SC431; mean

{"mol": "CN(C)c1cc(NC(=O)CNC(C)(C)C)c(O)c2c1C[C@H]1C[C@H]3[C@H](N(C)C)C(O)=C(C(N)=O)C(=O)[C@@]3(O)C(O)=C1C2=O", "concentration at 20 min [ng/mL]": 94.4}

----------
experiment: Tigecycline plasma PK and % F after PO enteric-coated capsule in dogs; assay type: in vivo, Beagle dogs; conditions: female, beagle, dog, plasma, po, 30 mg, Tigecycline Plasma Concentration, 0.7 hr; PO 30 mg unformulated enteric-coated capsule, SC430; mean
assay metric: concentration at 0.7 hr (ng/mL)

{"mol": "CN(C)c1cc(NC(=O)CNC(C)(C)C)c(O)c2c1C[C@H]1C[C@H]3[C@H](N(C)C)C(O)=C(C(N)=O)C(=O)[C@@]3(O)C(O)=C1C2=O", "measurement": 0}

----------
assay: Tigecycline plasma PK and % F after PO enteric-coated capsule in dogs; format: in vivo, Beagle dogs; details: female, beagle, dog, plasma, po, 15 mg, PO 15 mg enteric-coated capsule with 500 mg CA and 100 mg LLC ([…]), SC424; mean; read-out: Tmax (converted)

{"molecule": "CN(C)c1cc(NC(=O)CNC(C)(C)C)c(O)c2c1C[C@H]1C[C@H]3[C@H](N(C)C)C(O)=C(C(N)=O)C(=O)[C@@]3(O)C(O)=C1C2=O [Tigecycline]", "Tmax / h": 1.85}

----------
Assay: Tigecycline plasma PK and % F after intraduodenal (ID) injection in anesthetized rats
Format: in vivo, Sprague-Dawley Rats
Conditions: female, Sprague-Dawley, rat, plasma, other: intraduodenal bolus injection, 4.8 mg/kg, ID, PBS, 4.8 mg/kg (RA851); 20 min
Method: Animals weighed approximately 250 g at the time of testing. Rats were fasted overnight (with water available), prior to dosing. Intravenous (IV) doses were administered as a bolus injection into the left carotid […] at a dose volume of 1.6 mL/kg. […] Female rats were maintained in groups of 3 per polycarbonate (or equivalent) shoebox cage with fresh wood chip bedding at 20-22° C. under a 12 hour on/off light:dark cycle. […] Animal weights were determined post-anesthesia induction. […]
assay metric: concentration at 20 min (ng/mL)

{"mol": "CN(C)c1cc(NC(=O)CNC(C)(C)C)c(O)c2c1C[C@H]1C[C@H]3[C@H](N(C)C)C(O)=C(C(N)=O)C(=O)[C@@]3(O)C(O)=C1C2=O", "assay metric": "concentration at 20 min", "measurement": 31}
